# MEASUREMENT DESCRIPTION: Mean residence time in rat at 0.5 mg/kg, iv
# Format: ADME, organism-based
# Parameters: dose 0.5 mg/kg, route intravenous
# PARTICULARS: in vivo
Hi there, I'd appreciate the recorded MRT for every entry that follows.
Entry rule: numbers only, all in h.

Prompt line: What does the record list as MRT for `O=C(O)CCCCN1C2=C([C@H](c3ccc(Br)cc3)n3ncnc31)[C@@H](c1ccc(Br)cc1)Oc1ccccc12` ?
Response line: 4.1

Prompt line: What does the record list as MRT for `O=C(O)CN1C2=C([C@H](c3ccc(Br)cc3)n3ncnc31)[C@@H](c1ccc(Br)cc1)Oc1ccccc12` ?
Response line: 0.46
